Entry source: patent US20150086555A1

Quick reference for Trimeric HA Binding: RLU among some binders
Biological target: recombinant soluble homotrimeric HA of A/Vietnam/1203/04 (H5N1) (Influenza A virus A/VietNam/1203/2004(H5N1))
Test: trimeric HA microarray, transfection supernatant set 4
Details: remark: other sources report otherwise
Include the unit after the number when you answer.

// below: answered binders
Prompt: Tell me its Trimeric HA Binding: RLU given TCN-535 (5246_P19) (antibody, V domains shown) VH: QVQLVQSGSEVKKPGTSVKVSCTASGSVFTNYGISWVRQAPGQGLEWMGGIIPLFGAAKYAQKFQGRVTITADESTKTVYMELSRLTSKDTAIYFCAKAPRVYEYYFDQWGQGTPVTVSS VL: EIVLTQSPGTLSLSPGERATLSCRASQSVSSSQLAWYQQKPGQAPRLIIYGASTRATGIPDRFSGSGSGTDFTLTIGRLEPEDFAVFFCQQYSTSPPTFGQGTKVDFK as the entry.
Completion: 25200 RLU

Prompt: Complete the entry with Trimeric HA Binding: RLU for TCN-523 (5248_A17) (antibody, V domains shown) VH: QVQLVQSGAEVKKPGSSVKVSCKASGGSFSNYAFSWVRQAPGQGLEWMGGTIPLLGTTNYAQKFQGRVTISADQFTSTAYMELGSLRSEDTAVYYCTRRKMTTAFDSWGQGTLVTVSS VL: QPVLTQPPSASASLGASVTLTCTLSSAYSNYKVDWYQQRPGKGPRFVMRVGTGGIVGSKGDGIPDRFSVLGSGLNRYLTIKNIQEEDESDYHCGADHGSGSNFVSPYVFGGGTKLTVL
Completion: 30900 RLU

New cases:
Prompt: Output measured Trimeric HA Binding: RLU for this item: TCN-536 (5095_N01) (antibody, V domains shown) VH: QVQLQQWGAGLLKPSETLSLTCAVYGGSFSVSGYYWSWIRQPPGRGLEWIGEISHGGSTNYNPSLKSRVTISVDTTKNQFSLRLSSVTAADTAVYYCARGTDPDTEVYCRVGNCAAFDYWGQGSLVTVSS VL: EIILAQSPGTLSLSPGERATLSCRASQFVSTRSLAWYQQRPGQAPRLLIYGASSRATGIPDRFSGSGSGTDFTLTISRLEPEDFAVYYCQHYGYSPRYAFGQGSKVEIK
Completion: 182 RLU

Prompt: Let me know recorded Trimeric HA Binding: RLU for TCN-504 (3251_K17) (antibody, V domains shown) VH: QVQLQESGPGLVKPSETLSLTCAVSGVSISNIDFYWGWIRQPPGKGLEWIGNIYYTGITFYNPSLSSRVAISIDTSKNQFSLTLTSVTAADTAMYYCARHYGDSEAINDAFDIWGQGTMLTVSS VL: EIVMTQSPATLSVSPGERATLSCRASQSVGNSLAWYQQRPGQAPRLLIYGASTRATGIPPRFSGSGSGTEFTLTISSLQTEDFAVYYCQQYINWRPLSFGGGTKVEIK , thanks.
Completion: 25700 RLU
